# System: HEL^RE (HEL-resistant, ruxolitinib-resistant) cells
# Experimental Details: Anti-proliferative test, CellTiter-Lumi luminescence method, HEL-resistant model
# Assay type: cell-based, Human
# Condition Set: Homo sapiens, 72 h, HEL^RE cells
Entries and their IC50 values follow.
Outcome Measure: IC50 (µM)

- Compound: "CNC(=O)c1cc(Oc2ccc(NC(=O)Nc3ccc(Cl)c(C(F)(F)F)c3)cc2)ccn1 [sorafenib]"
  Outcome Measure: "IC50"
  Recorded Result: 3.56
- Compound: "CNC(=O)c1cc(Oc2ccc(NC(=O)Nc3ccc(Cl)c(C(F)(F)F)c3)c(F)c2)ccn1 [regorafenib]"
  Outcome Measure: "IC50"
  Recorded Result: 0.514

Just for reference, patent US20230310394A1 is where these values come from.
